From: the array DNA melting data of Ke et al. (doi:10.1101/2024.01.08.574731)

Experiment: folding enthalpy; higher = less favourable; fluorescence melt of hairpins on a sequencing array, two-state fit
Conditions: sodium 0.088 M
test readout: folding enthalpy (kcal/mol)
# number only, unit kcal/mol dropped from output

// known answers, use as guide
- GTAATCGAAAGATGCTAC ((((((....)))..))): -17.3
- GCGAGCACTCGC ((((....)))): -26.4
- GCCGTAGGAAACTGCGGC ((((.((....)).)))): -37.3
- GCAGAGCGAAAGCCGTGC (((..((....))..))): -16.4
- GTCTTGACGAAAGTCGAC (((..(((....)))))): -11

Here is another sequence to look at.
QUERY: Returns the measured folding enthalpy for the input sequence. Input: GGACTCGGAAACGAATCC (((.(((....))).)))
RESULT: -26.7

###

Measured Tm, listed per entry.
Assay: melting temperature; fluorescence melt of hairpins on a sequencing array, two-state fit, raised by 9.35 °C to match UV melts
Conditions: sodium 0.088 M
Expressed in °C, but write only the number.

• GATCAGCGTTCTGATC ((((((....)))))) = 49.8

QUERY: Endpoint output: Tm of CGCGCGGAAACGCCAGCG ((((((....)))..))) . Value?
RESULT: 53.9

QUERY: Please report the recorded Tm for GTAGAGCGAAAGCTATAC (((.(((....))).))) .
RESULT: 51.6

QUERY: // query Tm value for entry GCTGTGCGAAAGCGCCGC ((.(.((....)).).))
RESULT: 49.6

###

Test: folding enthalpy; higher = less favourable; fluorescence melt of hairpins on a sequencing array, two-state fit
Settings: sodium 0.088 M
test readout: folding enthalpy (kcal/mol)
Kindly provide the numeric value in kcal/mol only, without the unit symbol.

Example results:
* GATCCTCACGAGGATC ((((((....)))))) | -43.3
* GATCGTTAATACGATC ((((((....)))))) | -36.3
* GATAGCGGAAACGCCATC (((.(((....))).))) | -15.5
* GATCGTGTATACGATC ((((((....)))))) | -46
* GCTCCCGAAAGGGCCAGC ((((((....)))..))) | -11.7

QUERY: What does the record list as folding enthalpy for GTGCAGGGAAACCTGCGC (.(((((....))))).) ?
RESULT: -26.2

QUERY: Please look up its folding enthalpy: GCTCTGCGAAAGCGTAGC (((..((....))..)))
RESULT: -17.6

QUERY: Would you mind telling me what folding enthalpy value was observed for GTGGGGGGAAACCCTCAC (((.(((....))).))) ?
RESULT: -30.3

QUERY: Which folding enthalpy is reported for this sequence? CGGTCTCGGAAACGACCG (((..(((....))))))
RESULT: -30

QUERY: Which folding enthalpy is reported for this sequence? GATCTATAATTAGATC ((((((....))))))
RESULT: -25.5

QUERY: Return reported folding enthalpy; argument: GCCCGTTCGAAAGAAGGC (((..(((....))))))
RESULT: -12.3

QUERY: What value of folding enthalpy has been recorded for this entry: GATCAATCCATTGATC ((((((....))))))
RESULT: -42.6

QUERY: Look up folding enthalpy for this sequence: GATCGTAGCACGATC ((((((...))))))
RESULT: -34.8
